Exercise: state measured Population Tubulin-Different-Phenotype (%) for each of the compounds provided.
test system: HEK-293T; assay: Multiplex assay against HEK293T; type: toxicity, cell-based; conditions: human, 24 h, 10 µM, compound concentration 10 uM, replicate 2
Respond numerically; units are % and should not be typed.

# get_value(readout='Population Tubulin-Different-Phenotype (%)', item= N#Cc1c(Oc2cccc(OS(=O)(=O)CCCC(F)(F)F)c2)cccc1C(F)(F)F )
41

Also, Cl.NCCc1ccc(O)c(O)c1 [DOPAMINE HYDROCHLORIDE] please.
15

Then this compound: O=C(CCCc1ccccc1)Nc1nc2ccccc2c(=O)s1
20

Param item: COc1ccccc1N1CCN(C[C@@H](C(=O)NC(C)(C)C)c2ccccc2)CC1.Cl.Cl
48

Would you mind doing CCCCCC(O)/C=C/[C@H]1C(=O)CC(O)C1C/C=C\CCCC(=O)O (stereo partly specified) as well?
21

Record: CCc1cc2cc(NS(=O)(=O)c3ccc(C#N)cc3)ccc2n(CC)c1=O
29

Try this compound next: N#Cc1cc(F)cc(-c2nc(-c3ccc(F)cn3)no2)c1
12

And CCCCC1=NC2(CCCC2)C(=O)N1Cc1ccc(-c2ccccc2-c2nnn[nH]2)cc1 [IRBESARTAN] ?
22

Try CC(C)(C)c1cc(NC(=O)Nc2ccc(-c3cn4c(n3)sc3cc(OCCN5CCOCC5)ccc34)cc2)no1 [QUIZARTINIB] next.
50

Entry to check: NCCc1cn(S(=O)(=O)c2c(Cl)nc3sccn23)c2ccccc12.O=C(O)C(=O)O
76

Try the compound Br.CS(=O)(=O)Nc1c(O)ccc2c1CCCC2C1=NCCN1 (stereo unspecified)
21

Let us now turn to CC(C)COc1ccc(CNC(=O)N(Cc2ccc(F)cc2)C2CCN(C)CC2)cc1 [PIMAVANSERIN]
69

What do we get for Cc1noc(-c2ccc(-c3ccc(CC(=O)O)cc3)cc2)c1NC(=O)O[C@H](C)c1ccccc1Cl ?
38

Next entry: O=C1[C@H](Cc2ccc(O)cc2)N2C(=O)CCN(C(=O)NCc3ccccc3)[C@H]2CN1Cc1cccc2ccccc12
70

Try CCCCC(=O)N(Cc1ccc(-c2ccccc2-c2nnn[nH]2)cc1)[C@H](C(=O)O)C(C)C next.
13

Now consider Cc1cccc(NC(=O)CN2CCC(c3ccccn3)CC2)c1.Cl.Cl .
26

# iterate: CC(=O)Nc1cccc2c1c(Sc1ccc(Cl)cc1)c(C)n2CC(=O)O [AZD1981]
19

Entry to check: CN(C)C(=O)Cn1cc(-c2ccc(-c3cncc4ccccc34)cc2)cn1
30

Now give it for CCCOc1ccc2[nH]cc(C3=CCNCC3)c2n1.Cl too.
34

Consider next the compound Cc1cnc(-c2cc(N3CCN(C(=O)CCS(C)(=O)=O)CC3)ncc2Cl)c(C)c1 in the same way.
22

Same thing, different compound: CN1CCN(c2cc(-c3ccccc3)nc(N)n2)CC1
17

----------
Consider the following compounds; for each one, report its Population Fragmented Nuclei (%).
tested on: Fibroblast; experiment: Multiplex assay against human fibroblast; type: toxicity, cell-based; details: 48 h, 1 µM, compound concentration 1 uM, replicate 2
Quick note: give the figure in %, leave out the unit.

What does the record list as Population Fragmented Nuclei (%) for Cl.NCCc1ccc(O)c(O)c1 [DOPAMINE HYDROCHLORIDE] ?
33

Field entry: CN[C@@H](C)C(=O)N[C@H](C(=O)N1CCC[C@H]1C(=O)Nc1snnc1-c1ccccc1)C1CCCCC1
38

What do we get for Cc1noc(-c2ccc(-c3ccc(CC(=O)O)cc3)cc2)c1NC(=O)O[C@H](C)c1ccccc1Cl ?
35

And the next one, CCCCCC(O)/C=C/[C@H]1C(=O)CC(O)C1C/C=C\CCCC(=O)O (stereo partly drawn) ?
47

Would you kindly repeat that for Cc1c(CC(=O)O)c2cccnc2n1Cc1ccc(S(C)(=O)=O)cc1C(F)(F)F ?
39

Repeat for the following compound: CCCOc1ccc2[nH]cc(C3=CCNCC3)c2n1.Cl
36

Subsequent entry: N#Cc1cc(F)cc(-c2nc(-c3ccc(F)cn3)no2)c1
45

Now try CN1CCN(c2cc(-c3ccccc3)nc(N)n2)CC1 .
36

----------
test system: HEK-293T; assay: Multiplex assay against HEK293T; assay type: toxicity, cell-based; conditions: human, 12 h, 10 µM, compound concentration 10 uM, replicate 2
Can you tell me Population Pyknosed Nuclei (%) for the items I'm about to list?
Respond numerically; units are % and should not be typed.

Using the record for NCCc1cn(S(=O)(=O)c2c(Cl)nc3sccn23)c2ccccc12.O=C(O)C(=O)O , report its Population Pyknosed Nuclei (%).
23

Again, but for CCc1cc2cc(NS(=O)(=O)c3ccc(C#N)cc3)ccc2n(CC)c1=O
23

Query COc1ccccc1N1CCN(C[C@@H](C(=O)NC(C)(C)C)c2ccccc2)CC1.Cl.Cl next
25

----------
system: HEK-293T; assay: Multiplex assay against HEK293T; assay type: toxicity, cell-based; conditions: human, 12 h, 1 µM, compound concentration 1 uM, replicate 1
Quantity: Population Tubulin-Different-Phenotype (%)
Reply with the number, then its unit.

Value lookup for Population Tubulin-Different-Phenotype (%); key = Cc1sc2c(c1C)C(c1ccc(Cl)cc1)=N[C@@H](CC(=O)NCCCCCCCCNC(=O)COc1cccc3c1C(=O)N(C1CCC(=O)NC1=O)C3=O)c1nnc(C)n1-2 (stereo partly specified)
49%

Next record, please: CC(C)c1noc(N2CCC(COc3ccc(-c4ccc(S(C)(=O)=O)cc4)nc3)CC2)n1 [GSK-1292263]
32%

Now consider CCCOc1ccc2[nH]cc(C3=CCNCC3)c2n1.Cl and answer again.
39%

Proceed to CC[C@@H](C)Nc1nc(C)nc2c(-c3ccc(OC)nc3C)c(C)nn12 [PEXACERFONT]
34%

# iterate: CN[C@@H](C)C(=O)N[C@H](C(=O)N1CCC[C@H]1C(=O)Nc1snnc1-c1ccccc1)C1CCCCC1 [GDC-0152]
35%

// repeat for CN1CCN(c2cc(-c3ccccc3)nc(N)n2)CC1 and report
21%

Moving on to C[C@H](N)COC(=O)[C@@H](CCCCN)NC(=O)Cc1c(-c2ccc3ccccc3c2)[nH]c2c1ccc1ccccc12
27%

Now consider COC[C@@H](c1ccc(C(F)(F)F)cc1)N1CCN(C2(C)CCN(C(=O)c3c(C)ncnc3C)CC2)C[C@@H]1C.O=C(O)/C=C\C(=O)O [VICRIVIROC MALEATE] .
27%

Param item: CC(/C=C1\SC(=S)N(CCCC(=O)Nc2ccc(C(=O)O)c(O)c2)C1=O)=C\c1ccccc1
31%

// repeat for Cc1onc(-c2ccccc2Cl)c1C(=O)N(C)c1ccc(Cl)cc1 and report
25%

Repeat with CC(C)COc1ccc(CNC(=O)N(Cc2ccc(F)cc2)C2CCN(C)CC2)cc1 [PIMAVANSERIN]
49%

Thanks! And O=C1[C@H](Cc2ccc(O)cc2)N2C(=O)CCN(C(=O)NCc3ccccc3)[C@H]2CN1Cc1cccc2ccccc12 ?
46%

Consider next the compound Cc1cnc(-c2cc(N3CCN(C(=O)CCS(C)(=O)=O)CC3)ncc2Cl)c(C)c1 in the same way.
33%

Try the compound Cl.N=C(N)NC(=O)Cc1c(Cl)cccc1Cl [GUANFACINE HYDROCHLORIDE]
31%

Same thing, different compound: CN(C)C(=O)Cn1cc(-c2ccc(-c3cncc4ccccc34)cc2)cn1
35%

Would you kindly repeat that for N#Cc1cc(F)cc(-c2nc(-c3ccc(F)cn3)no2)c1 ?
25%

Same read-out for O=C(NCCN1CCC(n2c(=O)[nH]c3cc(Cl)ccc32)CC1)c1ccc(F)cc1 [HALOPEMIDE] ?
42%

Okay, and N#Cc1c(Oc2cccc(OS(=O)(=O)CCCC(F)(F)F)c2)cccc1C(F)(F)F ?
38%

How about this compound: Cl.NCCc1ccc(O)c(O)c1 [DOPAMINE HYDROCHLORIDE]
36%

Could you do the same for CCCCC1=NC2(CCCC2)C(=O)N1Cc1ccc(-c2ccccc2-c2nnn[nH]2)cc1 [IRBESARTAN] , please?
17%

// query: CCCCCC(O)/C=C/[C@H]1C(=O)CC(O)C1C/C=C\CCCC(=O)O (stereo partly specified)
23%

Note, next up: O=C(CCCc1ccccc1)Nc1nc2ccccc2c(=O)s1
32%

Next up: NCCc1cn(S(=O)(=O)c2c(Cl)nc3sccn23)c2ccccc12.O=C(O)C(=O)O
40%

Also check COc1ccccc1N1CCN(C[C@@H](C(=O)NC(C)(C)C)c2ccccc2)CC1.Cl.Cl
47%

Can you handle Cc1c(CC(=O)O)c2cccnc2n1Cc1ccc(S(C)(=O)=O)cc1C(F)(F)F [FEVIPIPRANT] next?
22%

Now give it for Br.CS(=O)(=O)Nc1c(O)ccc2c1CCCC2C1=NCCN1 (stereo unspecified) too.
26%

meta.source: ChEMBL document CHEMBL5058577
